- testTarget: Histone deacetylase 1 (Homo sapiens)
- protocolNotes: Inhibition of recombinant full length HDAC1 (unknown origin) using Ac-peptide-AMC as substrate after 1 hr by fluorescence assay
measurementName: IC50 (nM)

Cc1ccc(CN2CCC(c3noc(CN(C)c4ncc(C(=O)NO)cn4)n3)CC2)cc1 : 1.8

----------
- protocolNotes: Volume of distribution at steady state in Sprague-Dawley rat at 5 mg/kg, iv measured upto 24 hrs by LC-MS/MS analysis
- Format: ADME, organism-based
- conditionInfo: in vivo, read-out: Vdss
measurementName: Vd (L/kg)

Cc1ccc(CN2CCC(c3noc(CN(C)c4ncc(C(=O)NO)cn4)n3)CC2)cc1 : 6.33

----------
- testTarget: UniProtKB Q9UBN7
- protocolNotes: Inhibition of recombinant full length HDAC6 (unknown origin) using Ac-peptide-AMC as substrate after 1 hr by fluorescence assay
measurementName: IC50 (nM)

Cc1ccc(CN2CCC(c3noc(CN(C)c4ncc(C(=O)NO)cn4)n3)CC2)cc1 : 56

----------
- testTarget: Protein deacetylase HDAC6 (Homo sapiens) (UniProt Q9UBN7)
- Sequence (Q9UBN7 whole entry): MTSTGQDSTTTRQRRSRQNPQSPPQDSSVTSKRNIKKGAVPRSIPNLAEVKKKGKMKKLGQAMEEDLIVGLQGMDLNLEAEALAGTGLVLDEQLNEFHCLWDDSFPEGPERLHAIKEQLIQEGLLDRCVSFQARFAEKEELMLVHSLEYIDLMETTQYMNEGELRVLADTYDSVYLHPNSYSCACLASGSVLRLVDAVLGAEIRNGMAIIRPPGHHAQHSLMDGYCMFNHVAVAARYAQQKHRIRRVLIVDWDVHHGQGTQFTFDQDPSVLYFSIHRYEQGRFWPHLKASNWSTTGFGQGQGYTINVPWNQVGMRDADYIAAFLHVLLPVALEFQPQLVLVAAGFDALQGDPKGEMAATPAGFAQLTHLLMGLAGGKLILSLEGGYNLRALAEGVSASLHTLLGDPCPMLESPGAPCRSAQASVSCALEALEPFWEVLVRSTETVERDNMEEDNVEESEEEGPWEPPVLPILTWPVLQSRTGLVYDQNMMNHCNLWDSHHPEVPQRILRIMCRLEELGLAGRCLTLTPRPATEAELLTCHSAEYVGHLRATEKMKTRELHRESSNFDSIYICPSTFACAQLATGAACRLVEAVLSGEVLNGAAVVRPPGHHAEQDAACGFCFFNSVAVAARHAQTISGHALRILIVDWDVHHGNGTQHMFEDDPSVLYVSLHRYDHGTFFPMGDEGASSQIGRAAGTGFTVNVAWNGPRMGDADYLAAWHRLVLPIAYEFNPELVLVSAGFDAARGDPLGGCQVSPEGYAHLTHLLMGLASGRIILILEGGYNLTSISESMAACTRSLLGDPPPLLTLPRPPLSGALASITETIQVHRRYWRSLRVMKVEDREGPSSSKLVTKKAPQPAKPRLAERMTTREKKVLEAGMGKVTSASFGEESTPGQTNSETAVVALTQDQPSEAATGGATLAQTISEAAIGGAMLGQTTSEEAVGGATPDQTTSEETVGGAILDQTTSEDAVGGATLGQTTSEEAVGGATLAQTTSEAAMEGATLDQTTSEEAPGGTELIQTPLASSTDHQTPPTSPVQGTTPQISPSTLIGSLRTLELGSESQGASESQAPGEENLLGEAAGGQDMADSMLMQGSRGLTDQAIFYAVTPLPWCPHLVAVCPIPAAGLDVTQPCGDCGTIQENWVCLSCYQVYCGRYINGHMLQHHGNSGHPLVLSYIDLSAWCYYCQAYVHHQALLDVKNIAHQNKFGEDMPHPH
- protocolNotes: Inhibition of recombinant full length HDAC6 (unknown origin) using Ac-peptide-AMC as substrate at 100 nM after 1 hr by fluorescence assay relative to control
measurementName: inhibition (%)

CN(Cc1nc(C2CCN(Cc3ccc(F)cc3)CC2)no1)c1ncc(C(=O)NO)cn1 : 65
O=C(NO)c1ccc(OCc2nc(C3CCN(Cc4ccccc4)CC3)no2)cc1 : 66
Cc1ccc(CN2CCC(c3noc(CN(C)c4ncc(C(=O)NO)cn4)n3)CC2)cc1 : 71
O=C(/C=C/c1ccc(OCc2nc(C3CCN(Cc4ccccc4[N+](=O)[O-])CC3)no2)cc1)NO : 63
O=C(/C=C/c1ccc(OCc2nc(C3CCN(Cc4ccc(F)cc4F)CC3)no2)cc1)NO : 74

----------
- testTarget: UniProtKB Q13547
- protocolNotes: Inhibition of recombinant full length HDAC1 (unknown origin) using Ac-peptide-AMC as substrate at 100 nM after 1 hr by fluorescence assay relative to control
measurementName: inhibition

CN(Cc1nc(C2CCN(Cc3ccccc3)CC2)no1)c1ncc(/C=C/C(=O)NO)cn1 : 65%
Cc1cccc(CN2CCC(c3noc(CN(C)c4ncc(C(=O)NO)cn4)n3)CC2)c1 : 93%
CN(Cc1nc(C2CCN(Cc3ccc(C(F)(F)F)cc3)CC2)no1)c1ncc(C(=O)NO)cn1 : 62%
CN(Cc1nc(C2CCN(Cc3ccc(F)cc3)CC2)no1)c1ncc(C(=O)NO)cn1 : 92%
O=C(/C=C/c1ccc(OCc2nc(C3CCN(Cc4ccc(F)cc4F)CC3)no2)cc1)NO : 35%
CN(Cc1nc(C2CCN(Cc3ccc(C#N)cc3)CC2)no1)c1ncc(C(=O)NO)cn1 : 68%
Cc1ccc(CN2CCC(c3noc(COc4ccc(CCC(=O)NO)cc4)n3)CC2)cc1 : 12%
O=C(/C=C/c1ccc(OCc2nc(C3CCN(Cc4ccccc4)CC3)no2)cc1)NO : 35%
CN(Cc1nc(C2CCN(Cc3ccccc3F)CC2)no1)c1ncc(C(=O)NO)cn1 : 84%
Cc1ccccc1CN1CCC(c2noc(COc3ccc(/C=C/C(=O)NO)cc3)n2)CC1 : 14%
O=C(NO)c1ccc(OCc2nc(C3CCN(Cc4ccccc4)CC3)no2)cc1 : 29%
O=C(Cc1ccc(OCc2nc(C3CCN(Cc4ccccc4)CC3)no2)cc1)NO : 18%
Cc1ccc(CN2CCC(c3noc(CN(C)c4ncc(C(=O)NO)cn4)n3)CC2)cc1 : 96%
O=C(/C=C/c1ccc(OCc2nc(C3CCN(Cc4ccc(F)cc4)CC3)no2)cc1)NO : 38%
Cc1ccc(CN2CCC(c3noc(CN(C)c4ncc(/C=C/C(=O)NO)cn4)n3)CC2)cc1 : 61%
CN(Cc1nc(C2CCN(Cc3ccc(F)cc3Cl)CC2)no1)c1ncc(C(=O)NO)cn1 : 73%
COc1ccc(CN2CCC(c3noc(COc4ccc(/C=C/C(=O)NO)cc4)n3)CC2)cc1 : 36%
C=CCN1CCC(c2noc(COc3ccc(/C=C/C(=O)NO)cc3)n2)CC1 : 34%
CN(Cc1nc(C2CCN(Cc3ccccc3Cl)CC2)no1)c1ncc(C(=O)NO)cn1 : 93%
O=C(/C=C/c1ccc(OCc2nc(C3CCN(Cc4ccc(F)c(F)c4)CC3)no2)cc1)NO : 17%

----------
- protocolNotes: AUC ( 0 to t) in Sprague-Dawley rat at 5 mg/kg, po measured upto 24 hrs by LC-MS/MS analysis
- Type: ADME, organism-based
- Parameters: dose 5 mg/kg, time < 24 hr, route oral
- conditionInfo: in vivo
measurementName: AUC(0-t) at 24 h (µg·h/mL)

Cc1ccc(CN2CCC(c3noc(CN(C)c4ncc(C(=O)NO)cn4)n3)CC2)cc1 : 0.232

----------
- testTarget: Histone deacetylase 1 (Homo sapiens, UniProt Q13547)
- Sequence (Q13547 whole entry): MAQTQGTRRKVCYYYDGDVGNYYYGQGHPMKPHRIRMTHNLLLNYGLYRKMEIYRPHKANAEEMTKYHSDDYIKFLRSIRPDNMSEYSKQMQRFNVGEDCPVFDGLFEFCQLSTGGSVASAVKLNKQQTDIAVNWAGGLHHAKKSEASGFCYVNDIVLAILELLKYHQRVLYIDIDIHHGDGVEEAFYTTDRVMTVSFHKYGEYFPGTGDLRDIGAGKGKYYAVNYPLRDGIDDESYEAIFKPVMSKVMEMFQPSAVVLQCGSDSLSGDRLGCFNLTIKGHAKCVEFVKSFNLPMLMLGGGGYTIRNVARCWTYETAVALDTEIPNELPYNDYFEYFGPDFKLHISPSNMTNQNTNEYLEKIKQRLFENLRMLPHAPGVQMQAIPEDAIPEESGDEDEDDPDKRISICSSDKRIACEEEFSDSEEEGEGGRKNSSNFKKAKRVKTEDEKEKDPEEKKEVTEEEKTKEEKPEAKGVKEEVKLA
- protocolNotes: Inhibition of recombinant full length HDAC1 (unknown origin) using Ac-peptide-AMC as substrate at 100 nM after 1 hr by fluorescence assay relative to control
Output TRUE for inhibition not less than 10%; output FALSE otherwise.

CN(Cc1nc(C2CCN(Cc3ccc(F)cc3F)CC2)no1)c1ncc(C(=O)NO)cn1 : TRUE
CCCN1CCC(c2noc(COc3ccc(/C=C/C(=O)NO)cc3)n2)CC1 : TRUE
Cc1cccc(CN2CCC(c3noc(COc4ccc(/C=C/C(=O)NO)cc4)n3)CC2)c1 : TRUE
CCCN1CCC(c2noc(COc3ccc(CCC(=O)NO)cc3)n2)CC1 : FALSE
O=C(/C=C/c1ccc(OCc2nc(C3CCN(Cc4ccccc4Cl)CC3)no2)cc1)NO : FALSE
O=C(/C=C/c1ccc(OCc2nc(C3CCN(Cc4cccc(F)c4)CC3)no2)cc1)NO : TRUE
O=C(CCc1ccc(OCc2nc(C3CCN(Cc4ccccc4)CC3)no2)cc1)NO : TRUE
N#Cc1ccccc1CN1CCC(c2noc(COc3ccc(/C=C/C(=O)NO)cc3)n2)CC1 : TRUE
C=CCN1CCC(c2noc(COc3ccc(CCC(=O)NO)cc3)n2)CC1 : FALSE
CN(Cc1nc(C2CCN(Cc3ccccc3)CC2)no1)c1ncc(C(=O)NO)cn1 : TRUE

----------
- System: A2780S
- protocolNotes: Antiproliferative activity against human A2780S cells after 72 hrs by MTT assay
- Type: functional, cell-based
measurementName: IC50 (nM)

Cc1ccc(CN2CCC(c3noc(CN(C)c4ncc(C(=O)NO)cn4)n3)CC2)cc1 : 40

----------
- protocolNotes: Clearance in Sprague-Dawley rat at 5 mg/kg, iv measured upto 24 hrs by LC-MS/MS analysis
- Format: ADME, organism-based
- conditionInfo: in vivo
measurementName: clearance

Cc1ccc(CN2CCC(c3noc(CN(C)c4ncc(C(=O)NO)cn4)n3)CC2)cc1 : 198 mL/min/kg

----------
- testTarget: Histone deacetylase 4 (Homo sapiens, UniProt P56524)
- Sequence (P56524 whole entry): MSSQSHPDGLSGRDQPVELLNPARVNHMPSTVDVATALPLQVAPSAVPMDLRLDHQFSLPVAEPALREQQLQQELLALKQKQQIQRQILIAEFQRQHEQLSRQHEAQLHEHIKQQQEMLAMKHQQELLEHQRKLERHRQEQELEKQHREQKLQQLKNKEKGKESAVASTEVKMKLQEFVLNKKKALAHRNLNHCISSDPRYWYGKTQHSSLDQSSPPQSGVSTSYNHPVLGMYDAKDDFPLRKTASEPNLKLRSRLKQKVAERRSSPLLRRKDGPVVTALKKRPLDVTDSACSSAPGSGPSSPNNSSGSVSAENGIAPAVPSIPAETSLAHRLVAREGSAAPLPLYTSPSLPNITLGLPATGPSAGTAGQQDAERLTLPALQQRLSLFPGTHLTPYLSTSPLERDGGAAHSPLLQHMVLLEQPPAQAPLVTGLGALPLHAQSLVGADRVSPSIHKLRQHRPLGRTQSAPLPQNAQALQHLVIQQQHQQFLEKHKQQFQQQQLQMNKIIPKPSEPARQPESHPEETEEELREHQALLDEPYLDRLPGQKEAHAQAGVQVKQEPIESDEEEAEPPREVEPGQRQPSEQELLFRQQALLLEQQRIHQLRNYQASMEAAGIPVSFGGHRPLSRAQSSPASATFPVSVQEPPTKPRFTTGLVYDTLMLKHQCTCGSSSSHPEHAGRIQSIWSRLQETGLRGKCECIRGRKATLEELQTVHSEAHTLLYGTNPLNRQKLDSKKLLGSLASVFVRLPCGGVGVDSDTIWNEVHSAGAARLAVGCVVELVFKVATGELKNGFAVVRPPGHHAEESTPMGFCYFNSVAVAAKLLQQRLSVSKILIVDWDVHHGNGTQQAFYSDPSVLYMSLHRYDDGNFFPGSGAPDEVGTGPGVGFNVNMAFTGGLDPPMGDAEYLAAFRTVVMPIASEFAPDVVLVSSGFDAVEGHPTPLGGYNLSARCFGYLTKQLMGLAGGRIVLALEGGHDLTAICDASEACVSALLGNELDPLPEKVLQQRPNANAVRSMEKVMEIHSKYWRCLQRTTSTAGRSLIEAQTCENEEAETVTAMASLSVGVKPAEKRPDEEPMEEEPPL
- protocolNotes: Inhibition of recombinant full length human HDAC4 expressed in sf9 insect cells using Ac-peptide-AMC as substrate after 1 hr by fluorescence assay
pIC50: −log10 of the molar value.
measurementName: pIC50

Cc1ccc(CN2CCC(c3noc(CN(C)c4ncc(C(=O)NO)cn4)n3)CC2)cc1 : 6.33

----------
- Test system: Raji
- protocolNotes: Antiproliferative activity against human Raji cells after 72 hrs by MTT assay
- Format: functional, cell-based
// assign True if IC50 falls strictly below 50 nM, else False (ties count as False)

CN(Cc1nc(C2CCN(Cc3ccc(F)cc3)CC2)no1)c1ncc(C(=O)NO)cn1 : True
Cc1ccc(CN2CCC(c3noc(CN(C)c4ncc(C(=O)NO)cn4)n3)CC2)cc1 : True
CN(Cc1nc(C2CCN(Cc3ccc(C(F)(F)F)cc3)CC2)no1)c1ncc(C(=O)NO)cn1 : False
Cc1cccc(CN2CCC(c3noc(CN(C)c4ncc(C(=O)NO)cn4)n3)CC2)c1 : True
CN(Cc1nc(C2CCN(Cc3ccccc3F)CC2)no1)c1ncc(C(=O)NO)cn1 : False
